Source listed as ChEMBL document CHEMBL1145498.

Reported values: ΔTm for Dual specificity mitogen-activated protein kinase kinase 2 (Homo sapiens, UniProt P36507), one per item.
Give the value in °C but do not write °C after it.

Below, 2 compounds whose answers are already recorded.
Enquiry: API: value(readout=ΔTm, system=Dual specificity mitogen-activated protein kinase kinase 2 (Homo sapiens, UniProt P36507)) for record Cl.Cn1cc(C2=C(c3ccc4cc5n(c4c3)CCC(CN)C5)C(=O)NC2=O)c2ccccc21 (stereo not drawn)
Return: 0.1

Enquiry: Field: ΔTm (Dual specificity mitogen-activated protein kinase kinase 2 (Homo sapiens, UniProt P36507)). Entry: CN(C)C[C@@H]1CCn2cc(c3ccccc32)C2=C(C(=O)NC2=O)c2cn(c3ccccc23)CCO1 [RUBOXISTAURIN]
Return: 0.1

Now turn to the next compound.
Enquiry: What reported ΔTm corresponds to `O=C(O)Cc1ccc(O)c([N+](=O)[O-])c1` on Dual specificity mitogen-activated protein kinase kinase 2 (Homo sapiens, UniProt P36507)?
Return: 0.1
